Would you kindly list Percent Effect for each of these compounds?
System name: Tyrosyl-tRNA synthetase, putative (Trypanosoma cruzi (strain CL Brener))
Test name: Trypanosoma cruzi tyrosyl tRNA synthetase (TcYRS) SOP
Assay type: functional
Design: scale not given: direction of the effect not stated beside the values
Test conditions: 30 µM
Numbers only, in %.

O=C(NCC1CC1)Nc1cccc(N2CCN(CC3CC3)CC2)c1 :: 16.1
CCOc1ccccc1C(CC(=O)Nc1ccc(C)cn1)NC(C)=O (stereo not drawn) :: 17.1
CS(=O)(=O)N1CCOC2(CCCN(c3cnccn3)C2)C1 (stereo not drawn) :: 1.24
CNS(=O)(=O)Cc1ccc(CNC(=O)c2ccc(C)[nH]c2=O)cc1 :: 26.8

Please give Percent Effect for each item listed below.
1. Cc1nnc(CN2CCC(N(C)Cc3nnc(C4CC4)n3C)C2)o1 (stereo not drawn)
2. COCCC(=O)N1CCC(c2noc3nc(C)cc(C(F)(F)F)c23)CC1
3. O=C(CN1CCOC(Cn2cccn2)C1)NCCc1ccc(F)cc1 (stereo not drawn)
4. O=c1oc(-c2cccs2)nn1CC(O)c1ccccc1 (stereo not drawn)
5. O=C1CC(N(C(=O)c2ccc3[nH]c4c(c3c2)CCCC4)C2CC2)C(=O)N1 (stereo not drawn)
6. CN(Cc1cccs1)C(=O)CS(=O)(=O)Cc1ccc(Cl)c(Cl)c1
7. O=C(Cc1ccc2c(c1)OCCO2)N1CCCC(n2ccnc2)C1 (stereo not drawn)
8. O=C(Cn1ccc2ccccc21)NCc1ccc(C(=O)O)cc1

[11.1, 6.49, 1.22, 16.1, 24.1, -2.35, 11.8, 10.4]

All figures here come from ChEMBL document CHEMBL3988442.
